Reported TGI by item:
system: SR; assay: Growth inhibition of human SR cells; format: functional; conditions: read-out: Log TGI (converted)

{"smiles.entry": "CCCc1cc(=O)c2c(OC)c3c(OC)cc(O)c(Oc4c(O)cc(OC)c5c(OC)c6c(=O)cc(CCC)oc6cc45)c3cc2o1", "system.name": "SR", "TGI": "7.08 µM"}
{"smiles.entry": "COc1cc(O)cc2cc3oc(C)cc(=O)c3c(OC)c12", "system.name": "SR", "TGI": "> 100 µM"}
{"smiles.entry": "COc1cc(O)cc2cc3oc(C)cc(=O)c3c(O)c12", "system.name": "SR", "TGI": "41.7 µM"}
{"smiles.entry": "CCCc1cc(=O)c2c(OC)c3c(OC)cc(OC)cc3cc2o1", "system.name": "SR", "TGI": "> 100 µM"}

----------
system: MOLT-4; test: Growth inhibition of human MOLT4 cells; assay type: functional
measurement.kind: GI50 (µM)

{"smiles.entry": "CCCc1cc(=O)c2c(OC)c3c(OC)cc(O)c(Oc4c(O)cc(OC)c5c(OC)c6c(=O)cc(CCC)oc6cc45)c3cc2o1", "comparison.symbol": "=", "measurement": 3.24}
{"smiles.entry": "COc1cc(O)cc2cc3oc(C)cc(=O)c3c(O)c12", "comparison.symbol": "=", "measurement": 17.8}
{"smiles.entry": "COc1cc(O)cc2cc3oc(C)cc(=O)c3c(OC)c12", "comparison.symbol": ">", "measurement": 100}
{"smiles.entry": "CCCc1cc(=O)c2c(OC)c3c(OC)cc(OC)cc3cc2o1", "comparison.symbol": ">", "measurement": 100}

----------
test system: HCT-15; experiment: Growth inhibition of human HCT15 cells; assay type: functional; settings: read-out: Log TGI (converted)
measurement.kind: TGI (µM)

{"smiles.entry": "CCCc1cc(=O)c2c(OC)c3c(OC)cc(OC)cc3cc2o1", "measurement.kind": "TGI", "unit.text": "µM", "comparison.symbol": ">", "measurement": 100}
{"smiles.entry": "COc1cc(O)cc2cc3oc(C)cc(=O)c3c(O)c12", "measurement.kind": "TGI", "unit.text": "µM", "comparison.symbol": "=", "measurement": 70.8}
{"smiles.entry": "COc1cc(O)cc2cc3oc(C)cc(=O)c3c(OC)c12", "measurement.kind": "TGI", "unit.text": "µM", "comparison.symbol": ">", "measurement": 100}
{"smiles.entry": "CCCc1cc(=O)c2c(OC)c3c(OC)cc(O)c(Oc4c(O)cc(OC)c5c(OC)c6c(=O)cc(CCC)oc6cc45)c3cc2o1", "measurement.kind": "TGI", "unit.text": "µM", "comparison.symbol": "=", "measurement": 20.4}
{"smiles.entry": "CCCc1cc(=O)c2c(O)c3c(OC)cc(O)cc3cc2o1", "measurement.kind": "TGI", "unit.text": "µM", "comparison.symbol": "=", "measurement": 40.7}

----------
system: TK-10; experiment: Growth inhibition of human TK10 cells; format: functional; details: read-out: Log TGI (converted)
measurement.kind: TGI (µM)

{"smiles.entry": "COc1cc(O)cc2cc3oc(C)cc(=O)c3c(O)c12", "system.name": "TK-10", "measurement.kind": "TGI", "comparison.symbol": "=", "measurement": 61.7}
{"smiles.entry": "CCCc1cc(=O)c2c(O)c3c(OC)cc(O)cc3cc2o1", "system.name": "TK-10", "measurement.kind": "TGI", "comparison.symbol": ">", "measurement": 100}
{"smiles.entry": "COc1cc(O)cc2cc3oc(C)cc(=O)c3c(OC)c12", "system.name": "TK-10", "measurement.kind": "TGI", "comparison.symbol": ">", "measurement": 100}
{"smiles.entry": "CCCc1cc(=O)c2c(OC)c3c(OC)cc(OC)cc3cc2o1", "system.name": "TK-10", "measurement.kind": "TGI", "comparison.symbol": ">", "measurement": 100}
{"smiles.entry": "CCCc1cc(=O)c2c(OC)c3c(OC)cc(O)c(Oc4c(O)cc(OC)c5c(OC)c6c(=O)cc(CCC)oc6cc45)c3cc2o1", "system.name": "TK-10", "measurement.kind": "TGI", "comparison.symbol": "=", "measurement": 31.6}
